Tested on: Escherichia coli IAI1
measurement_protocol: fold change of Putrescine concentration vs plate DMSO controls (fold change (ratio)); higher = more amine produced
assay_context: 10 µM; incubation time: 27 h, anaerobic, 37 °C
Where a name gives a salt, the structure may show the parent alone.
Answer 0.0 if fold change of Putrescine concentration is under 1, and 1.0 if it is 1 or more.

Answered cases to consult:
C=CC1=C(C(=O)O)N2C(=O)[C@@H](NC(=O)/C(=N\OCC(=O)O)c3csc(N)n3)[C@H]2SC1 [Cefixime] : 1.0
CCN1CCN(C(=O)N[C@@H](C(=O)N[C@@H]2C(=O)N3C(C(=O)O)=C(CSc4nnnn4C)CS[C@H]23)c2ccc(O)cc2)C(=O)C1=O [Cefoperazone dihydrate] : 1.0
CCn1cc(C(=O)O)c(=O)c2cc(F)c(N3CCNCC3)nc21 [Enoxacin] : 0.0
CO/N=C(\C(=O)N[C@@H]1C(=O)N2C(C(=O)[O-])=C(C[n+]3ccn4ncccc43)CS[C@H]12)c1nsc(N)n1 [Cefozopran hydrochloride] : 1.0
CO[C@@]12[C@H](COC(N)=O)C3=C(C(=O)C(C)=C(N)C3=O)N1C[C@@H]1N[C@@H]12 [Mitomycin C] : 0.0
CO/N=C(\C(=O)N[C@@H]1C(=O)N2C(C(=O)O)=C(COC(N)=O)CS[C@H]12)c1ccco1 [Cefuroxime sodium salt] : 1.0

Moving on to the next molecule.
Query: Can C=CC1=C(C(=O)O)N2C(=O)[C@@H](NC(=O)/C(=N\O)c3csc(N)n3)[C@H]2SC1 [Cefdinir] be said to have fold change of Putrescine concentration at or above 1?
Reply: 0.0

---

Could you please report measured fold change of Cadaverine concentration for the items listed next?
Tested on: Escherichia coli IAI1
measurement_protocol: fold change of Cadaverine concentration vs plate DMSO controls (fold change (ratio)); higher = more amine produced
assay_context: 2.5 µM; incubation time: 27 h, anaerobic, 37 °C
Where a name gives a salt, the structure may show the parent alone.
One number for each entry.

CO[C@@]12[C@H](COC(N)=O)C3=C(C(=O)C(C)=C(N)C3=O)N1C[C@@H]1N[C@@H]12 [Mitomycin C] : 1.98

Hey, can you go through the list below and give me fold change of Cadaverine concentration for every item?
1. CCn1cc(C(=O)O)c(=O)c2cc(F)c(N3CCNCC3)nc21 [Enoxacin]
2. C=CC1=C(C(=O)O)N2C(=O)[C@@H](NC(=O)/C(=N\O)c3csc(N)n3)[C@H]2SC1 [Cefdinir]
3. CCN1CCN(C(=O)N[C@@H](C(=O)N[C@@H]2C(=O)N3C(C(=O)O)=C(CSc4nnnn4C)CS[C@H]23)c2ccc(O)cc2)C(=O)C1=O [Cefoperazone dihydrate]
4. CO/N=C(\C(=O)N[C@@H]1C(=O)N2C(C(=O)[O-])=C(C[n+]3ccn4ncccc43)CS[C@H]12)c1nsc(N)n1 [Cefozopran hydrochloride]
5. C=CC1=C(C(=O)O)N2C(=O)[C@@H](NC(=O)/C(=N\OCC(=O)O)c3csc(N)n3)[C@H]2SC1 [Cefixime]
6. CO/N=C(\C(=O)N[C@@H]1C(=O)N2C(C(=O)O)=C(COC(N)=O)CS[C@H]12)c1ccco1 [Cefuroxime sodium salt]

Reply:
[1.14, 1.98, 1.82, 0.929, 1.72, 1.09]

---

Test system: Escherichia coli IAI1
measurement_protocol: growth (OD595) fold change vs plate DMSO controls (fold change (ratio)); higher = more growth
assay_context: 10 µM; incubation time: 27 h, anaerobic, 37 °C
Where a name gives a salt, the structure may show the parent alone.
readout_name: growth
One number for each entry.

C=CC1=C(C(=O)O)N2C(=O)[C@@H](NC(=O)/C(=N\O)c3csc(N)n3)[C@H]2SC1 : -0.0507

Hey, can you go through the list below and give me growth for every item?
1. CCn1cc(C(=O)O)c(=O)c2cc(F)c(N3CCNCC3)nc21
2. CO[C@@]12[C@H](COC(N)=O)C3=C(C(=O)C(C)=C(N)C3=O)N1C[C@@H]1N[C@@H]12
3. C=CC1=C(C(=O)O)N2C(=O)[C@@H](NC(=O)/C(=N\OCC(=O)O)c3csc(N)n3)[C@H]2SC1
4. CO/N=C(\C(=O)N[C@@H]1C(=O)N2C(C(=O)O)=C(COC(N)=O)CS[C@H]12)c1ccco1 [Cefuroxime sodium salt]
5. CO/N=C(\C(=O)N[C@@H]1C(=O)N2C(C(=O)[O-])=C(C[n+]3ccn4ncccc43)CS[C@H]12)c1nsc(N)n1 [Cefozopran hydrochloride]
6. CCN1CCN(C(=O)N[C@@H](C(=O)N[C@@H]2C(=O)N3C(C(=O)O)=C(CSc4nnnn4C)CS[C@H]23)c2ccc(O)cc2)C(=O)C1=O [Cefoperazone dihydrate]

Reply:
1: 0.0275; 2: 0.764; 3: 0.0344; 4: 0.171; 5: 1.15; 6: 0.0151
